molecular target: Rhesus PDE2A3 (Macaca mulatta); assay: PDE2 fluorescence polarization (IMAP FP) inhibition assay, rhesus enzyme; assay type: biochemical, rhesus macaque; conditions: LabB; read-out: rhPDE2 Ki (nM) LabB
Sequence (B3VTJ2 1-941): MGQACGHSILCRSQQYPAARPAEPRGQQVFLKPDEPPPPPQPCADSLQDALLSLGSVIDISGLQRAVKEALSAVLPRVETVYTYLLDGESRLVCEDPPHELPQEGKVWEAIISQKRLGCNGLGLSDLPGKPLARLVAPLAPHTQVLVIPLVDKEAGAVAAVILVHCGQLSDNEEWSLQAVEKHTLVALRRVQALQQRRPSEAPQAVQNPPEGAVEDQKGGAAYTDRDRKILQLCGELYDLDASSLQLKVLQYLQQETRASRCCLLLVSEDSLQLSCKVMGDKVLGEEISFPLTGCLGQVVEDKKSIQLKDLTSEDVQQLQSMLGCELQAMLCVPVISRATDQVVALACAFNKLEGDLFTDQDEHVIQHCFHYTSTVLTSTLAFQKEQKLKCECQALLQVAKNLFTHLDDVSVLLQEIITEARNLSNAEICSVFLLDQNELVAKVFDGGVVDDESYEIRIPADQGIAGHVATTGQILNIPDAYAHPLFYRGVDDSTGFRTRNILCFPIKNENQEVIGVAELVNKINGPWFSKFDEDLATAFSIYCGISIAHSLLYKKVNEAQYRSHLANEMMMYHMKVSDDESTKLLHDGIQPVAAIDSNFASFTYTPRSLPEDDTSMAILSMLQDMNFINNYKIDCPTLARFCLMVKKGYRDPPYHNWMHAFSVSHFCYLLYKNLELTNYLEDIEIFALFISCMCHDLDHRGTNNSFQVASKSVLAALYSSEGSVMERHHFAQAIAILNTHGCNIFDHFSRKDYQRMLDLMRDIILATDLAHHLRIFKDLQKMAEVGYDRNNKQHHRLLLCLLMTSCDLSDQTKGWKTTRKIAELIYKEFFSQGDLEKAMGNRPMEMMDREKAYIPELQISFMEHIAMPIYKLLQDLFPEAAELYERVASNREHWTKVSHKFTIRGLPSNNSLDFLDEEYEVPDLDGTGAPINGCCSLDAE
experimental-endpoint: Ki (nM)

>  <compound>
Cc1nc(-c2nnc([C@H](C)c3ccc(C(F)(F)F)cc3F)s2)cc(=O)[nH]1 (single isomer, unassigned) [Example 4]

>  <endpoint-result>
20

$$$$
>  <compound>
COc1ccc(Cc2nc(-c3cn(C(C)c4ccc(C(F)(F)F)cc4F)cn3)cc(=O)[nH]2)cc1OC (single isomer, unassigned) [Example 19]

>  <endpoint-result>
0.4

$$$$
>  <compound>
CCC(c1ccc(C(F)(F)F)cc1F)n1cnc(-c2cc(=O)[nH]c(C)n2)c1 (stereo not shown) [Example 20]

>  <endpoint-result>
123

$$$$

P: Cc1nc(-c2nnc([C@H](C)c3ccc(C(F)(F)F)cc3)o2)cc(=O)[nH]1 (single isomer, unassigned) [Example 10]
Q: Cc1nc(-c2nnc([C@H](C)c3ccc(C(F)(F)F)cc3F)s2)cc(=O)[nH]1 (single isomer, unassigned) [Example 5]
[ask] Compare reported Ki values for P and Q . Which is lower? Kindly give the label for the entry you pick.
[reply] Q
(Q: 19 nM, P: 699 nM)
